Sourced from PubChem BioAssay (EPA / NIEHS)

Read-out: CYP4A11 (gene 1579)
test-details: LTEA_HepaRG_CYP4A11: Life Technologies and Expression Analysis (LTEA) Assay for CYP4A11 using HepaRG (AID 2283486)
assay-context: mRNA level, 48 h; actives raise or lower the signal
Calls of active or inactive are those of the source. The calls were made as follows: active = hit-call score of the fitted dose curve at least 0.9, where 1 is the maximum; inactive = score below 0.9.
Mark one answer only. Choices: class 1 for active, class 0 for inactive

Answered examples (5):
                                   molecule    group
0  CC(=O)S[C@@H]1CC2=CC(=O)CC[C@]2(C)[C@H]2CC[C@@]3(C)[C@@H](CC[C@@]34CCC(=O)O4)[C@H]12  class 1
1             S=C([S-])NCCNC(=S)[S-].[Mn+2]  class 1
2                       N#CSCSc1nc2ccccc2s1  class 1
3                     COC(=O)c1ccccc1C(=O)O  class 0
4  C#C[C@]1(O)CC[C@H]2[C@@H]3CCC4=CC(=O)CC[C@@H]4[C@H]3CC[C@@]21CC  class 1

Would you kindly look at the next entry?
Exercise: What was the test verdict on CCCCC(CC)COC(=O)c1ccccc1C(=O)O (stereo unspecified) ?
Solution: class 1

###

Read-out: Cytochrome P450 (CYP24A1_1), CYP24A1 (gene 1591)
test-details: LTEA_HepaRG_CYP24A1_1: Life Technologies and Expression Analysis (LTEA) Assay for Cytochrome P450 (CYP24A1_1) using HepaRG (AID 2283671)
assay-context: mRNA level, 48 h; actives raise or lower the signal
Active and inactive are the calls of the source. The calls were made as follows: active = hit-call score of the fitted dose curve at least 0.9, where 1 is the maximum; inactive = score below 0.9.
quantity: outcome

In [3]: df
Out[3]:
                                   compound  measurement
0                                     COCCO     inactive
1  CCCCCCC(C)OC(=O)COc1nc(F)c(Cl)c(N)c1Cl (centres undefined)     inactive
2                       N#CSCSc1nc2ccccc2s1     inactive
3                            O=C(O)c1ccccc1     inactive

###

System: frog Estrogen Receptor (ER), gene 398734
test-details: ATG_frER1_XSP2: Attagene TRANS-FACTORIAL Multi-Species (XSP2) HepG2 Assay for frog Estrogen Receptor (ER) (AID 2283821);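 also: hits raise reporter mRNA above DMSO baseline so potency means agonist or activator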
Results filed as inconclusive are left out. Active and inactive are the calls of the source. Rule for the calls: active = hit-call score of the fitted dose curve at least 0.9, where 1 is the maximum; inconclusive = response in the unintended direction; inactive = score below 0.9.
Answer with one of the outcomes active, inactive

>>> print(df.to_string())
                                   compound                               measured_on     group
0                    CC(C)CCCCCCc1ccc(O)cc1  frog Estrogen Receptor (ER), gene 398734    active
1  C=CCOC(Cn1ccnc1)c1ccc(Cl)cc1Cl (configuration not stated)  frog Estrogen Receptor (ER), gene 398734  inactive

Exercise: Fill in: this test's call for CCCCC(CC)CN1C(=O)C2C3C=CC(C3)C2C1=O (configuration not stated) is ___
Solution: inactive

Exercise: How was "CCN(Cc1c(F)cccc1Cl)c1c([N+](=O)[O-])cc(C(F)(F)F)cc1[N+](=O)[O-]" classified in this test?
Solution: inactive

Exercise: Test call, this compound: "CC(C)(c1ccc(O)cc1)c1ccc(O)cc1"
Solution: active

Exercise: Could you please tell me the result logged for "O=C(c1ccc(O)cc1O)c1ccc(O)cc1O" in this assay?
Solution: active

Exercise: Recorded call for CC1(C)C(C=C(Cl)Cl)C1C(=O)OCc1cccc(Oc2ccccc2)c1 (configuration not stated) ?
Solution: inactive
